Recorded values, source ChEMBL document CHEMBL1201862.

Some molecules, each annotated with its measured GI50.
# Test system: HCC 2998
# test details: NCI tumour cell line growth inhibition, 48 h
Calls of active or inactive are those of the source. No stated cut-off is given here; in the data, active = GI50 up to about 1.1 µM and inactive = higher.

# annotated cases, reported GI50 shown
COc1ccc(C(=O)Cn2c(C(C)=O)nc3ccccc32)cc1	29.9 µM (inactive)
c1ccc2[nH]c(-c3nc4ccccc4o3)nc2c1	> 100 µM (inactive)
C/N=C1\CC2c3cc(OC)c(OC)cc3CCN2C2=C1C(=O)CC(C)(C)C2 (stereo unspecified)	> 100 µM (inactive)
CCOC(=O)C1S/C(=N/c2ccc(Cl)cc2C)N=C1C (stereo unspecified)	20.7 µM (inactive)
O=P(Nc1ccccc1)(Oc1ccccc1)N1CCN(c2ccccc2)CC1 (stereo unspecified)	16.3 µM (inactive)

Identify measured GI50 corresponding to CCOC(=O)/C(C#N)=C/c1[nH]c(C(=O)OCc2ccccc2)c(C)c1C
> 100 µM (inactive)

Give me measured GI50, please, for this molecule: CC(C)C(NCc1c(O)ccc2c(-c3ccccc3)cc(=O)oc12)C(=O)O (stereo unspecified)
> 100 µM (inactive)

Please report GI50 for the following molecule: CCOC(=O)CCC(NC(=O)C(CCC(=O)OCC)NC(=O)C(Cc1ccc([N+](=O)[O-])cc1)NC(C)=O)C(=O)NNC(=O)OC(C)(C)C (stereo unspecified)
> 100 µM (inactive)

Please give the documented GI50 of CCOC(=O)Nc1ccc(C)c(NC(=O)OCC)c1
56.2 µM (inactive)

Specify measured GI50 for Clc1cc(N/N=C(/c2ccccc2)c2ncccn2)ncn1 .
70.3 µM (inactive)

Supply GI50 value. Item: C[S+]([O-])c1ncc2c(n1)-c1ccccc1OC2 (stereo unspecified)
38.4 µM (inactive)
